- assayed.target: wild-type EZH2 (PRC2 enzyme) (Homo sapiens (Human))
- Sequence (Q15910 other isoform, or with tags, fused parts or gaps): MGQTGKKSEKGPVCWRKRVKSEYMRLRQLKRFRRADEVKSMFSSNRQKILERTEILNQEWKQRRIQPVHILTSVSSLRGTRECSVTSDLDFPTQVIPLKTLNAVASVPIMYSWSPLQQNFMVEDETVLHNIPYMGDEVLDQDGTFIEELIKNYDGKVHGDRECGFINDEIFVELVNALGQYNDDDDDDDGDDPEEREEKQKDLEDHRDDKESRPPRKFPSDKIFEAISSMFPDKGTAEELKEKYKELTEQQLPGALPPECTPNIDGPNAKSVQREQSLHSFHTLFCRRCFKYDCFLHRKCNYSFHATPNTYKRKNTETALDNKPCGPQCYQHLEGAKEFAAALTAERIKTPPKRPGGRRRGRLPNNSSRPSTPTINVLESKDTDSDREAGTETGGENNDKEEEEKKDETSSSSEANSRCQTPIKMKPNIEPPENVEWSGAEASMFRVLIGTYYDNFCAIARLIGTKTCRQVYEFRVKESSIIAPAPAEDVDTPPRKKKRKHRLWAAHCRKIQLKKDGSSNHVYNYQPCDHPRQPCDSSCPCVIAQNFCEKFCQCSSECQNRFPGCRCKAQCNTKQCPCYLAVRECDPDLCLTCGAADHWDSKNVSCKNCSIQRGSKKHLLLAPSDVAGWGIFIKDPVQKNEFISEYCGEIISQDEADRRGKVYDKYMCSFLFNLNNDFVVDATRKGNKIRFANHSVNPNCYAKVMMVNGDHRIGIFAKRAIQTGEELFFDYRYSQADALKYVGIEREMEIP
- Sequence (O75530 whole entry partner): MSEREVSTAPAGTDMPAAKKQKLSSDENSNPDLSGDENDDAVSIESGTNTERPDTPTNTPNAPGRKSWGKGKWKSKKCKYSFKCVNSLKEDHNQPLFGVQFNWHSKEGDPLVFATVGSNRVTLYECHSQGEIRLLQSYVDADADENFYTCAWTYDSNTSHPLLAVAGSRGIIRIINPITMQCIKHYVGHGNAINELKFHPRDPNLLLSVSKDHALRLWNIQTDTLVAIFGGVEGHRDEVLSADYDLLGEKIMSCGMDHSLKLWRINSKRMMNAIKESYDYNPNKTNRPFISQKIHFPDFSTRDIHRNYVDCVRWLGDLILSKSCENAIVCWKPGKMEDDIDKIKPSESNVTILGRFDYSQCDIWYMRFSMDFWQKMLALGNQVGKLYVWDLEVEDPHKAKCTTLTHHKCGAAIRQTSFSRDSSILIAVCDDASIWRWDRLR
- Sequence (Q15022 whole entry partner): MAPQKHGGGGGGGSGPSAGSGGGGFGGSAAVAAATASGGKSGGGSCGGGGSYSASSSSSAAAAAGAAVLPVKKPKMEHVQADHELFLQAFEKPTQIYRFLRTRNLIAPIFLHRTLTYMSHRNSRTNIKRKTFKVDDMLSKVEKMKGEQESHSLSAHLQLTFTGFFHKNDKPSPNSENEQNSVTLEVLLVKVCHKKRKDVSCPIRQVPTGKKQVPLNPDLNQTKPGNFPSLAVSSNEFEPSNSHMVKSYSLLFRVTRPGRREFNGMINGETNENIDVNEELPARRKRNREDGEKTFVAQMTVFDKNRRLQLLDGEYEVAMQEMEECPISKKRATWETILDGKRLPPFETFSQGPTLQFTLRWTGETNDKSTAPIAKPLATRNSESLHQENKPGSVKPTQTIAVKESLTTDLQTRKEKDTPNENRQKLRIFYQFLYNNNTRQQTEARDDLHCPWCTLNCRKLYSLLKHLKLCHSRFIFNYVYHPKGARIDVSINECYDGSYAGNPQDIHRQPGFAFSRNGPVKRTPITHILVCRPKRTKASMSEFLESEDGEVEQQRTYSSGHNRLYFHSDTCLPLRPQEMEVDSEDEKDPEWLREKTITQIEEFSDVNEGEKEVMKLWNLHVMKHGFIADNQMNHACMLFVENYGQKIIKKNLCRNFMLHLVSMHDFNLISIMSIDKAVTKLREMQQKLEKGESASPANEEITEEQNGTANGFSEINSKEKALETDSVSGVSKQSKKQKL
- Sequence (Q09028 whole entry partner): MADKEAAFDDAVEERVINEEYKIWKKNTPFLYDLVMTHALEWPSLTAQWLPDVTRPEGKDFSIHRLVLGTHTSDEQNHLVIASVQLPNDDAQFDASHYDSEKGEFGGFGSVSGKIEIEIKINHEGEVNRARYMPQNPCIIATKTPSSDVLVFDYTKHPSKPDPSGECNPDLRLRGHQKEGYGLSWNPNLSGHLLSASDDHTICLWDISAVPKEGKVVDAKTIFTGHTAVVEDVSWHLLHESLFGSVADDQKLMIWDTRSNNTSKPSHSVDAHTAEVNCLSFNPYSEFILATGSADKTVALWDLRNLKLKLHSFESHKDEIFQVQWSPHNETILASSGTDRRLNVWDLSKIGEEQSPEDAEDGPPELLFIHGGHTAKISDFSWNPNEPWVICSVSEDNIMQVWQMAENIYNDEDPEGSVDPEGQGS
pIC50: −log10 of the molar value.
measured.attribute: pIC50

[[record]]
molecule = "Cc1cc(=O)c(CNC(=O)c2cc(C3=CC(C)(C)NC(C)(C)C3)nc3c2cnn3C(C)C)c(C)[nH]1 [Compound 1]"
measured_attribute = "pIC50"
measured_value = 5.18


(1) CCC(C)n1cc(C)c2c(C(=O)NCc3c(C)[nH]c(C)cc3=O)cc(-c3ccc(N4CCNCC4)nc3)cc21 (stereo not drawn) [Compound 4]
(2) Cc1cc(=O)c(CNC(=O)c2cc(C3CC(C)(C)NC(C)(C)C3)nc3c2cnn3C(C)C)c(C)[nH]1 [Compound 2]
Could you please tell me which of these two has the higher pIC50: 1 or 2 ? Identify your pick by its label.
1
(1: 7.55, 2: 5.15)
